Target: SGLT2 (Homo sapiens, UniProt P31639)
Construct: expressed in transfected cells
Sequence (P31639 whole entry): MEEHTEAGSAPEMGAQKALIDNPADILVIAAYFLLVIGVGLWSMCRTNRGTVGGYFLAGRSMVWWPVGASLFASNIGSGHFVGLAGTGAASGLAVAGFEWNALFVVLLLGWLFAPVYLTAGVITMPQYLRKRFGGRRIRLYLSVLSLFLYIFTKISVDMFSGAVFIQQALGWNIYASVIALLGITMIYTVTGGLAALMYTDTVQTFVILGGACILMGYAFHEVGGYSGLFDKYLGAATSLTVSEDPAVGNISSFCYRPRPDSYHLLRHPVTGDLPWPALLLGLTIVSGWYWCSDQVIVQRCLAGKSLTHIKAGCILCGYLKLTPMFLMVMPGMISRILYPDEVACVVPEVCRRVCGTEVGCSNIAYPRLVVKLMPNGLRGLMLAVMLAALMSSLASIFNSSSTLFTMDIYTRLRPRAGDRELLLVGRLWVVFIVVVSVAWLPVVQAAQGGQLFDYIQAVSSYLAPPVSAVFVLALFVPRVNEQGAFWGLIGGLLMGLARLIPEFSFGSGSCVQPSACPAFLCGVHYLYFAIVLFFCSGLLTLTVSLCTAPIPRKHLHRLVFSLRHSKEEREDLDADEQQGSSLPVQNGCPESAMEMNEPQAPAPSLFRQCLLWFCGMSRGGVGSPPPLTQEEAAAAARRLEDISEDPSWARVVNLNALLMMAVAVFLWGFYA
Assay: Inhibition of [14C]AMG uptake in SGLT2-overexpressing CHO cells
Format: cell-based
Conditions: CHO-SGLT2 cells, 10 μM [14C]AMG, 2 h, 37° C.

{"columns": ["Compound", "IC50"],
 "data": [
  ["OC[C@H]1O[C@@H](c2cc(Cc3ccc(C4(O)CC4)cc3)c(Cl)c3c2CCO3)[C@H](O)[C@@H](O)[C@@H]1O", "3.02 nM"],
  ["OC[C@H]1O[C@@H](c2cc(Cc3ccc(C4CC4)cc3)c(Cl)c3c2CC(O)O3)[C@H](O)[C@@H](O)[C@@H]1O (stereo partly shown)", "4.71 nM"],
  ["OC[C@H]1O[C@@H](c2cc(Cc3ccc(C4CC4)cc3)c(Cl)c3c2CCO3)[C@H](O)[C@@H](O)[C@@H]1O", "0.34 nM"],
  ["OC[C@H]1O[C@@H](c2ccc(Cl)c(Cc3ccc(O[C@H]4CCOC4)cc3)c2)[C@H](O)[C@@H](O)[C@@H]1O", "6.65 nM"]
]}
